For each of the molecules below, state its CC50.
- test-protocol: in vitro
- study-conditions: African green monkey

# query: CC50 of entry C/C(=N\c1ccc(Cl)c(Cl)c1)c1c(C)cc(O)n(O)c1=O [Compound 670] ≥ 120 µM

Form field: reported CC50 of C/C(=N\c1cccc(Oc2ccccc2)c1)c1c(C)cc(=O)n(O)c1O [Compound 515] ≥ 120 µM

Query: CC50; subject: CCCCSc1ccc(SCCCC)c(O)c(=O)c1O [Compound 694] ≥ 120 µM

Bench note: what CC50 did COc1ccc(CO/N=C(\C)c2c[nH]c(=O)[nH]c2=O)cc1 [Compound 522] show? 1 µM

Recorded CC50 of Cc1ccc(CNC(=O)c2cc(O)c(=O)c(O)cc2C)c(C)c1 [Compound 809] , please. 64 µM

Sample Cc1cc(O)c(=O)c(O)cc1C(=O)c1cccs1 [Compound 308] — what was its CC50? 111 µM

Quick one: CC50 of Cc1cc(O)c(=O)c(O)cc1C(=O)N1CCN(c2ccc([N+](=O)[O-])c3nonc23)CC1 [Compound 920] ? ≥ 120 µM

Any idea what its CC50 is? The molecule is CC1=CC(O)N(O)C(O)=C1/C(C)=N/c1ccccc1N (stereo not drawn) [Compound 208] ≥ 120 µM

I'd like to know its CC50. The molecule in question is C/C(=N\c1ccc(C(F)(F)F)cc1)c1c(C)cc(=O)n(O)c1O [Compound 517] ≥ 120 µM
